Data provenance is patent US9096594B2.

Target: GSK3β (Homo sapiens (Human))
Sequence (P49841 whole entry): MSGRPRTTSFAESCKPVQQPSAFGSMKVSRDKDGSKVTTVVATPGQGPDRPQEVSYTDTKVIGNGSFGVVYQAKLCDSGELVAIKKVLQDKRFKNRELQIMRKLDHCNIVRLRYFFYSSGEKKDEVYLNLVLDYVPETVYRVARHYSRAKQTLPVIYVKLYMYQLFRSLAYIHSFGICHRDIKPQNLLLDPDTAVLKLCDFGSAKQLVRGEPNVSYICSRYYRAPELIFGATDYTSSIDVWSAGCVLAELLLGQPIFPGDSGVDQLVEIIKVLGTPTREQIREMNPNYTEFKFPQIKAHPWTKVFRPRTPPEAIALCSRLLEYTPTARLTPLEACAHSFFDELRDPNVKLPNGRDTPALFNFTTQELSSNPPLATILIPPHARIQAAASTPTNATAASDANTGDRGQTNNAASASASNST
Assay: biochemical
pIC50: −log10 of the molar value.
Measurement Kind: pIC50

Solved cases below.
For Cc1[nH]nc2c1C(c1ccc(Br)cn1)C1=C(CC(C)(C)CC1=O)N2 (stereo not drawn) [Compound 39] , what is its reported pIC50?
5.30 to 6.00

For Cc1[nH]nc2c1C(c1ccc(C#N)cc1)C1=C(CC(C)(C)CC1=O)N2 (stereo not drawn) [Compound 34] , what is its reported pIC50?
4.52 to 5.30

For Cc1[nH]nc2c1C(c1ccc(C(F)(F)F)cc1)C1=C(CC(C)(C)CC1=O)N2 (stereo not drawn) [Compound 31] , what is its reported pIC50?
4.52 to 5.30

New cases:
For Cc1[nH]nc2c1C(c1cccc(C#N)c1)C1=C(CC(C)(C)CC1=O)N2 (stereo not drawn) [Compound 33] , what is its reported pIC50?
> 7.00

For COc1ccccc1[C@@H]1C2=C(CC(C)(C)CC2=O)Nc2n[nH]c(C(F)(F)F)c21 [Compound 54] , what is its reported pIC50?
> 7.00

For Cc1[nH]nc2c1[C@@H](c1cccs1)C1=C(CC(C)(C)CC1=O)N2 (racemic) [Compound 7] , what is its reported pIC50?
4.52 to 5.30

For COc1ccccc1[C@H]1C2=C(CC(C)(C)CC2=O)Nc2n[nH]c(C(F)(F)F)c21 [Compound 55] , what is its reported pIC50?
5.30 to 6.00

For COc1ccc(C2C3=C(CC(C)(C)CC3=O)Nc3n[nH]c(C)c32)cc1 (stereo not drawn) [Compound 24] , what is its reported pIC50?
4.52 to 5.30

For Cc1[nH]nc2c1C(C)(c1ccccc1)C1=C(CC(C)(C)CC1=O)N2 (stereo not drawn) [Compound 67] , what is its reported pIC50?
6.00 to 7.00

For COc1cccc(C2C3=C(CC(C)(C)CC3=O)Nc3n[nH]c(C)c32)c1 (stereo not drawn) [Compound 23] , what is its reported pIC50?
6.00 to 7.00

---

Target: CDK5/p25 (Homo sapiens (Human))
Sequence (Q00535 whole entry, species assumed): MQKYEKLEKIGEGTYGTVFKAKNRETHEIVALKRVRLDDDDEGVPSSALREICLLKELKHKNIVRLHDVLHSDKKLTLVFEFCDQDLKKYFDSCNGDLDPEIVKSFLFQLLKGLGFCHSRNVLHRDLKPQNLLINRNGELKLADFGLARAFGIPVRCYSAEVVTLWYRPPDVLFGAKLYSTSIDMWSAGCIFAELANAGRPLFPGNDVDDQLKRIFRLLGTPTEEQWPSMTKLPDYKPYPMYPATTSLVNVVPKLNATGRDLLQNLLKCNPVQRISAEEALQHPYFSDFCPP
Sequence (Q15078 99-307 partner, species assumed): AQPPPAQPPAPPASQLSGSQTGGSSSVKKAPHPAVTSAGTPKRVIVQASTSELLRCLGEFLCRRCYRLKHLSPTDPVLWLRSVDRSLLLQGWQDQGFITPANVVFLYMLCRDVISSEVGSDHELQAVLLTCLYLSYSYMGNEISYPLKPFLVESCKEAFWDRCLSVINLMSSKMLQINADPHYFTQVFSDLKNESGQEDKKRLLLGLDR
Give 1.0 when the value for ADP Glo Assay GSK3β vs CDK5 fold selectivity is at least 40 X. Give 0.0 when it is less.

Below are worked cases with known answers.
Would you say CC1(C)CC(=O)C2=C(C1)Nc1n[nH]c(C(F)(F)F)c1C2c1cc(F)ccc1C(F)(F)F (centres unmarked) [Compound 64] shows ADP Glo Assay GSK3β vs CDK5 fold selectivity at minimum 40 X?
1.0

Would you say CC1(C)CC(=O)C2=C(C1)Nc1n[nH]c(C(F)(F)F)c1C2(C)c1ccccc1 (racemic) [Compound 68] shows ADP Glo Assay GSK3β vs CDK5 fold selectivity at minimum 40 X?
1.0

Would you say CCc1[nH]nc2c1C(c1ccccc1OC)C1=C(CC(C)(C)CC1=O)N2 (centres unmarked) [Compound 48] shows ADP Glo Assay GSK3β vs CDK5 fold selectivity at minimum 40 X?
0.0

Would you say COc1ccccc1C1C2=C(CC(C)(C)CC2=O)Nc2n[nH]c(C)c21 (racemic) [Compound 20] shows ADP Glo Assay GSK3β vs CDK5 fold selectivity at minimum 40 X?
1.0

Would you say COc1ccccc1C1C2=C(CCC(C)(C)C2=O)Nc2n[nH]c(C)c21 (centres unmarked) [Compound 45] shows ADP Glo Assay GSK3β vs CDK5 fold selectivity at minimum 40 X?
0.0

Would you say Cc1[nH]nc2c1C(c1cccc(C#N)c1)C1=C(CC(C)(C)CC1=O)N2 (centres unmarked) [Compound 33] shows ADP Glo Assay GSK3β vs CDK5 fold selectivity at minimum 40 X?
1.0

Would you say COc1ccccc1C1C2=C(CCCC2=O)Nc2n[nH]c(C)c21 (centres unmarked) [Compound 46] shows ADP Glo Assay GSK3β vs CDK5 fold selectivity at minimum 40 X?
0.0

New cases:
Would you say COc1ccccc1C1C2=C(CC(C)(C)CC2=O)Nc2n[nH]c(C(C)C)c21 (centres unmarked) [Compound 49] shows ADP Glo Assay GSK3β vs CDK5 fold selectivity at minimum 40 X?
0.0
